# System: MAP strain UCF-4
# assay.protocol: radiometric 14CO2 BACTEC 460 growth culture, MAP UCF-4
# Assay type: cell-based, Mycobacterium avium subspecies paratuberculosis
# condition.summary: 1 μg/ml
value.type: percent change from control cGI (% ΔcGI / % −ΔcGI) (%)

[
  {
    "molecule": "O=C(O)c1cccnc1",
    "recorded.value": 48
  },
  {
    "molecule": "CN1CCCC1c1cccnc1 (stereo not shown) [Nicotine, nicotine, reference compound]",
    "recorded.value": "−10"
  },
  {
    "molecule": "NNC(=O)c1ccncc1 [INH, Isoniazid, reference compound]",
    "recorded.value": "−5"
  },
  {
    "molecule": "NC(=O)c1ccc[n+]([C@H]2O[C@H](COP(=O)([O-])OP(=O)(O)OC[C@H]3O[C@@H](n4cnc5c(N)ncnc54)[C@H](O)[C@@H]3O)[C@@H](O)[C@H]2O)c1 [α-NAD, α-nicotinamide adenine dinucleotide]",
    "recorded.value": 18
  }
]

====

# Tested on: MAP strain UCF-4
# assay.protocol: radiometric 14CO2 BACTEC 460 growth culture, MAP UCF-4
# Type: cell-based, Mycobacterium avium subspecies paratuberculosis
# condition.summary: 16 μg/ml
value.type: percent change from control cGI (% ΔcGI / % −ΔcGI) (%)

[
  {
    "compound": "NNC(=O)c1ccncc1 [INH, Isoniazid, reference compound]",
    "recorded.value": "−4"
  },
  {
    "compound": "O=C(O)c1cccnc1 [Nicotinic acid, nicotinic acid]",
    "recorded.value": 101
  },
  {
    "compound": "NC(=O)c1ccc[n+]([C@H]2O[C@H](COP(=O)([O-])OP(=O)(O)OC[C@H]3O[C@@H](n4cnc5c(N)ncnc54)[C@H](O)[C@@H]3O)[C@@H](O)[C@H]2O)c1 [α-NAD, α-nicotinamide adenine dinucleotide]",
    "recorded.value": 65
  },
  {
    "compound": "CN1CCCC1c1cccnc1 (stereo not shown) [Nicotine, nicotine, reference compound]",
    "recorded.value": "−6"
  }
]

====

# System: M. avium 101
# assay.protocol: radiometric 14CO2 BACTEC 460 growth culture, M. avium 101
# Assay type: cell-based, M. avium subspecies avium
# condition.summary: 4 μg/ml
Listed below: percent change from control cGI (% ΔcGI / % −ΔcGI) values for each entry.
value.type: percent change from control cGI (% ΔcGI / % −ΔcGI) (%)

[
  {
    "molecule": "NC(=O)c1ccc[n+]([C@H]2O[C@H](COP(=O)([O-])OP(=O)(O)OC[C@H]3O[C@@H](n4cnc5c(N)ncnc54)[C@H](O)[C@@H]3O)[C@@H](O)[C@H]2O)c1 [α-NAD, α-nicotinamide adenine dinucleotide]",
    "uom": "%",
    "recorded.value": "−15"
  },
  {
    "molecule": "O=C(O)c1cccnc1",
    "uom": "%",
    "recorded.value": 47
  },
  {
    "molecule": "NNC(=O)c1ccncc1 [INH, Isoniazid, reference compound]",
    "uom": "%",
    "recorded.value": "−96"
  },
  {
    "molecule": "CN1CCCC1c1cccnc1 (stereo not shown) [Nicotine, nicotine, reference compound]",
    "uom": "%",
    "recorded.value": 0
  }
]

====

# Test system: MAP ATCC 19698
# assay.protocol: radiometric 14CO2 BACTEC 460 growth culture, MAP 19698
# Type: cell-based, Mycobacterium avium subspecies paratuberculosis
# condition.summary: 64 μg/ml
value.type: percent change from control cGI (% ΔcGI / % −ΔcGI) (%)

[
  {
    "compound": "NNC(=O)c1ccncc1 [INH, Isoniazid, reference compound]",
    "measured.on": "MAP ATCC 19698",
    "recorded.value": "−63"
  },
  {
    "compound": "CN1CCCC1c1cccnc1 (stereo not shown) [Nicotine, nicotine, reference compound]",
    "measured.on": "MAP ATCC 19698",
    "recorded.value": "−11"
  },
  {
    "compound": "O=C(O)c1cccnc1",
    "measured.on": "MAP ATCC 19698",
    "recorded.value": 30
  },
  {
    "compound": "NC(=O)c1ccc[n+]([C@H]2O[C@H](COP(=O)([O-])OP(=O)(O)OC[C@H]3O[C@@H](n4cnc5c(N)ncnc54)[C@H](O)[C@@H]3O)[C@@H](O)[C@H]2O)c1 [α-NAD, α-nicotinamide adenine dinucleotide]",
    "measured.on": "MAP ATCC 19698",
    "recorded.value": 13
  }
]

====

# Tested on: MAP 303
# assay.protocol: radiometric 14CO2 BACTEC 460 growth culture, MAP 303
# Format: cell-based, Mycobacterium avium subspecies paratuberculosis
# condition.summary: 4 μg/ml
value.type: percent change from control cGI (% ΔcGI / % −ΔcGI) (%)

[
  {
    "compound": "NNC(=O)c1ccncc1 [INH, Isoniazid, reference compound]",
    "uom": "%",
    "recorded.value": "−6"
  },
  {
    "compound": "O=C(O)c1cccnc1",
    "uom": "%",
    "recorded.value": 2
  },
  {
    "compound": "NC(=O)c1ccc[n+]([C@H]2O[C@H](COP(=O)([O-])OP(=O)(O)OC[C@H]3O[C@@H](n4cnc5c(N)ncnc54)[C@H](O)[C@@H]3O)[C@@H](O)[C@H]2O)c1 [α-NAD, α-nicotinamide adenine dinucleotide]",
    "uom": "%",
    "recorded.value": 9
  },
  {
    "compound": "CN1CCCC1c1cccnc1 (stereo not shown) [Nicotine, nicotine, reference compound]",
    "uom": "%",
    "recorded.value": 8
  }
]

====

# Test system: MAP strain Dominic (ATCC 43545)
# assay.protocol: radiometric 14CO2 BACTEC 460 growth culture, MAP Dominic
# Assay type: cell-based, Mycobacterium avium subspecies paratuberculosis
# condition.summary: 4 μg/ml; first of the two values (two experiments)
Label 0 if percent change from control cGI (% ΔcGI / % −ΔcGI) falls below 80%; label 1 in every other case.

[
  {
    "compound": "NNC(=O)c1ccncc1 [INH, Isoniazid, reference compound]",
    "measured.on": "MAP strain Dominic (ATCC 43545)",
    "cat": 0
  },
  {
    "compound": "NC(=O)c1cccnc1 [Nicotinamide, nicotinamide]",
    "measured.on": "MAP strain Dominic (ATCC 43545)",
    "cat": 1
  },
  {
    "compound": "O=C(O)c1cccnc1 [Nicotinic acid, nicotinic acid]",
    "measured.on": "MAP strain Dominic (ATCC 43545)",
    "cat": 1
  },
  {
    "compound": "CN1CCCC1c1cccnc1 (centres unmarked) [Nicotine, nicotine, reference compound]",
    "measured.on": "MAP strain Dominic (ATCC 43545)",
    "cat": 0
  }
]

====

# Test system: MAP ATCC 19698
# assay.protocol: radiometric 14CO2 BACTEC 460 growth culture, MAP 19698
# Format: cell-based, Mycobacterium avium subspecies paratuberculosis
# condition.summary: 16 μg/ml
Listed below: percent change from control cGI (% ΔcGI / % −ΔcGI) values for each entry.
value.type: percent change from control cGI (% ΔcGI / % −ΔcGI) (%)

[
  {
    "molecule": "CN1CCCC1c1cccnc1 (stereo not shown) [Nicotine, nicotine, reference compound]",
    "uom": "%",
    "recorded.value": "−21"
  },
  {
    "molecule": "O=C(O)c1cccnc1",
    "uom": "%",
    "recorded.value": 12
  },
  {
    "molecule": "NC(=O)c1ccc[n+]([C@H]2O[C@H](COP(=O)([O-])OP(=O)(O)OC[C@H]3O[C@@H](n4cnc5c(N)ncnc54)[C@H](O)[C@@H]3O)[C@@H](O)[C@H]2O)c1 [α-NAD, α-nicotinamide adenine dinucleotide]",
    "uom": "%",
    "recorded.value": "−17"
  },
  {
    "molecule": "NNC(=O)c1ccncc1 [INH, Isoniazid, reference compound]",
    "uom": "%",
    "recorded.value": "−17"
  }
]

====

# Tested on: MAP ATCC 19698
# assay.protocol: radiometric 14CO2 BACTEC 460 growth culture, MAP 19698
# Format: cell-based, Mycobacterium avium subspecies paratuberculosis
# condition.summary: 4 μg/ml
Listed below: percent change from control cGI (% ΔcGI / % −ΔcGI) values for each entry.
value.type: percent change from control cGI (% ΔcGI / % −ΔcGI) (%)

[
  {
    "molecule": "NC(=O)c1ccc[n+]([C@H]2O[C@H](COP(=O)([O-])OP(=O)(O)OC[C@H]3O[C@@H](n4cnc5c(N)ncnc54)[C@H](O)[C@@H]3O)[C@@H](O)[C@H]2O)c1 [α-NAD, α-nicotinamide adenine dinucleotide]",
    "uom": "%",
    "recorded.value": "−6"
  },
  {
    "molecule": "O=C(O)c1cccnc1 [Nicotinic acid, nicotinic acid]",
    "uom": "%",
    "recorded.value": "−4"
  },
  {
    "molecule": "NNC(=O)c1ccncc1 [INH, Isoniazid, reference compound]",
    "uom": "%",
    "recorded.value": "−14"
  },
  {
    "molecule": "CN1CCCC1c1cccnc1 (stereo not shown) [Nicotine, nicotine, reference compound]",
    "uom": "%",
    "recorded.value": "−20"
  }
]

Cited source for all entries: patent US8507251B2
